# tested_target: T1, cynomolgus soluble ULBP2/6 (cULBP2/6) (cynomolgus, UniProt Q5VY80 28-217 (human entry), limits assumed)
# T1 construct: also called cyno ULBP6; Cyno-cULBP2/6
# T1 chain: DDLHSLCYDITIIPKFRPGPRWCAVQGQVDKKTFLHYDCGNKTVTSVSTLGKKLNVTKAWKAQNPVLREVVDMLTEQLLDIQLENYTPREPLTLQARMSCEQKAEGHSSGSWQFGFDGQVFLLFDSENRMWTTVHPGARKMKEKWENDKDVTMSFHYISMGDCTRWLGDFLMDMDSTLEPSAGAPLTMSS
# assay_name: SPR (BIACORE 8K, 37 C); antibody captured on Protein A, soluble ULBP injected;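 note: ligand injected as threefold dilution series in HBS-P (highest 10 or 50 nM), reference-cell and buffer-subtracted sensorgrams fitted with a 1:1 Langmuir model for on and off rates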

binder	kon
humanized 6E1 (h6E1), Fc version not stated (antibody, V domains shown, Recombinant humanized antibody, hIgG1 backbone with kappa light chain; also called hu6E1; PUR3993) VH: EVQLVQSGAEVKKPGASVKVSCKASGYTFTNYWMHWMRQAPGQGLEWLGRIHPSDSDTNYNQKFKGRATLTVDKSISTAYMELSRLRSDDTAVYYCAIEGTGKGYFDVWGRGTLVTVSS VL: DIQMTQSPSSLSASVGDRVTITCKASQDIYSYLSWFQQKPGKSPKTLIYRANRLVDGVPSRFSGSGSGQDFTLTISSLQPEDFATYYCLHYDEFPLTFGGGTKVEIK	2.77e+07 M⁻¹ s⁻¹
humanized 8E11 (h8E11), Fc version not stated (antibody, V domains shown, Recombinant humanized antibody, hIgG1 backbone with kappa light chain; also called PUR3926) VH: EVQLVESGGGLVQPGGSLRLSCAASGFTFRTYGMHWVRQAPGKGLEWVAYISSGSGTIDYADTVKGRFTISRDNAKNSLYLQMNSLRAEDTAVYYCTRQTGAMDYWGQGTLVTVSS VL: EIVLTQSPATLSLSPGERATLSCSASSSVSYMNWYQQKPGQSPRLWIYGISNLASGVPARFSGSGSGTDFTLTISSLEPEDFAVYYCQQRSSHPLTFGGGTKVEIK	396000 M⁻¹ s⁻¹
humanized 7B3 (h7B3), Fc version not stated (antibody, V domains shown, Recombinant humanized antibody, hIgG1 backbone with kappa light chain; also called hu7B3; PUR3922) VH: EVQLVESGGGLVQPGGSLRLSCAASGFTFSTYGFHWVRQAPGKGLEWVAYISSNSGTIDYADTVKGRFTISRDNAKNSLYLQMNSLRAEDTAVYYCARQGYGFDNWGQGTTVTVSS VL: DIQLTQSPSSLSASVGDRVTITCSASSRVSYMNWYQQKPGKSPKIWVYGISNLASGVPSRFSGSGSGTDFTFTISSLQPEDIATYYCQQRSSHPLTFGGGTKVEIK	1.44e+06 M⁻¹ s⁻¹
humanized 1D4 (h1D4), Fc version not stated (antibody, V domains shown, Recombinant humanized antibody, hIgG1 backbone with kappa light chain; also called hiD4; hu1D4) VH: EIQLVQSGSELKKPGASVKVSCKASGYTFTEYPIHWVRQAPGQGFEWMGMIYTDTGEPTHAEEFKGRFVFSLDTSVSTAYLQISSLKAEDTAVYFCVRWYDGSSYIMDYWGQGTTVTVSS VL: DIQMTQSPSSLSASVGDRVTITCKASQDINSYLSWFQQKPGKSPKTLIYRANRLVDGVPSRFSGSGSGQDYTFTISSLQPEDIATYYCLQYDEFPLTFGGGTKVEIK	8.84e+06 M⁻¹ s⁻¹
